# EXPERIMENTAL_DETAILS: Conductivity, pH and buffering capacity of 50 mM solutions of ampholytic buffers
# Assay type: physicochemical
# RECORDED_CONDITIONS: 50 mM solution
// label = Criterion met if pH is not less than 6, otherwise Criterion not met

These recorded examples may help you get a feel for the data.
CN(C)CC(CN(C)C)OS(=O)(=O)O; Criterion met
O=S(=O)(O)OC(CN1CCCCC1)CN1CCCCC1; Criterion met
N[C@@H](Cc1c[nH]cn1)C(=O)O [HIS, histidine, reference compound]; Criterion met

# input # bool: pH of CC[N+](CC)(CCCC(=O)[O-])CCCC(=O)O >= 6
# output Criterion not met

# input # bool: pH of O=S(=O)(O)OC(CN1CCOCC1)CN1CCOCC1 >= 6
# output Criterion not met

----------
# EXPERIMENTAL_DETAILS: Conductivity, pH and buffering capacity of 50 mM solutions of ampholytic buffers
# Type: physicochemical
# RECORDED_CONDITIONS: 50 mM solution
Measured Buffering capacity, listed per entry.
Response body: numeric value in mM/pH, unit text excluded.

Below, 4 compounds whose answers are already recorded.
O=S(=O)(O)OC(CN1CCCCC1)CN1CCCCC1; 20.8
CN(C)CC(CN(C)C)OS(=O)(=O)O; 25.0
O=S(=O)(O)OC(CN1CCOCC1)CN1CCOCC1; 14.7
CC[N+](CC)(CCCC(=O)[O-])CCCC(=O)O; 35.7

# input Need Buffering capacity, item N[C@@H](Cc1c[nH]cn1)C(=O)O [HIS, histidine, reference compound]
# output 12.5
